- conditionSummary: in acetonitrile, 298.15 K
recordedMetric: solubility (mole fraction)
The answer should be written as a number, with no unit following it.

// recorded solubility (mole fraction) for C[C@@H]1CC[C@H]2[C@@H](C)C(=O)O[C@@H]3O[C@@]4(C)CC[C@@H]1[C@]32OO4 : 0.000518

====

- conditionSummary: in acetone, 313.15 K
recordedMetric: solubility (mole fraction)
# respond with the number and nothing more

solubility (mole fraction) reading for C[C@@H]1CC[C@H]2[C@@H](C)C(=O)O[C@@H]3O[C@@]4(C)CC[C@@H]1[C@]32OO4 : 0.0181

====

- conditionSummary: in cyclohexane, 298.15 K
recordedMetric: solubility (mole fraction)

Summary for this molecule, C[C@@H]1CC[C@H]2[C@@H](C)C(=O)O[C@@H]3O[C@@]4(C)CC[C@@H]1[C@]32OO4 : solubility (mole fraction) is 0.00106
